Each item that follows carries a reported IC50.
Tested on: COLO 205
ASSAY_METHOD_TEXT: Cytotoxicity against human COLO 205 cells assessed as reduction in cell viability by MTT assay
Format: functional, cell-based
Units required after the number.

Example cases with answers are listed next.
[
  {
    "MOLECULE": "COc1cc(OC)c(S(=O)(=O)n2ccnc2-c2ccon2)c(OC)c1",
    "TEST_SYSTEM": "COLO 205",
    "IC50": "260 nM"
  },
  {
    "MOLECULE": "O=[N+]([O-])c1cccc(S(=O)(=O)n2ccnc2-c2ccon2)c1",
    "TEST_SYSTEM": "COLO 205",
    "IC50": "1900 nM"
  }
]

We next turn to a different molecule, shown below.
For record COc1cc([C@@H]2c3cc4c(cc3[C@@H](O[C@@H]3O[C@@H]5CO[C@@H](C)O[C@H]5[C@H](O)[C@H]3O)[C@H]3COC(=O)[C@H]23)OCO4)cc(OC)c1O [ETOPOSIDE] the listed IC50 is 130 nM

====

TEST_SYSTEM: Tubulin
ASSAY_METHOD_TEXT: Inhibition of tubulin polymerization (unknown origin)
ENDPOINT_NAME: IC50 (µM)
The answer is to be given in µM; state only the numeric part.

// recorded IC50 for "CCOc1ccc(-c2nccn2-c2cc(OC)c(OC)c(OC)c2)cc1Cl" : 0.87

====

ASSAY_METHOD_TEXT: Antiproliferative activity against HEK293 cells
Format: toxicity, cell-based
TEST_PARAMETERS: human
ENDPOINT_NAME: pIC50
In plain terms, pIC50 is the concentration in mol/L turned into minus its base-10 logarithm.

Consider "COc1ccc2[nH]c(=O)c(-c3nc(-c4ccccc4)c(-c4ccccc4)[nH]3)cc2c1" . Its measured pIC50 is 4.06

====

# maps each entry to its IC50
Tested on: HCT-116
ASSAY_METHOD_TEXT: Cytotoxicity against human HCT-116 cells assessed as reduction in cell growth incubated for 24 hrs by MTT assay
Type: functional, cell-based
TEST_PARAMETERS: HCT-116, 24 h
Please reply with the bare figure in µM and do not write the unit itself.

[
  {
    "COMPOUND_STRUCTURE": "COc1cccc2c1C(=O)c1c(O)c3c(c(O)c1C2=O)C[C@@](O)(C(=O)CO)C[C@@H]3O[C@H]1C[C@H](N)[C@H](O)[C@H](C)O1",
    "VALUE_UNIT": "µM",
    "IC50": 5.64
  }
]

IC50 reading for "O=C(O)c1ccc(C(=O)NCn2cc(CSc3nc(-c4ccccc4)c(-c4ccccc4)n3-c3ccccc3)nn2)cc1" : 16.8

====

Tested on: HT-29
ASSAY_METHOD_TEXT: Antiproliferative activity against human HT-29 cells assessed as reduction in cell growth by MTT assay
Format: functional, cell-based
ENDPOINT_NAME: pIC50
# reply with the number alone; pIC50 is -log10 of concentration in mol/L

Worked examples follow.
[
  {
    "COMPOUND": "COc1cccc2c1C(=O)c1c(O)c3c(c(O)c1C2=O)C[C@@](O)(C(=O)CO)C[C@@H]3O[C@H]1C[C@H](N)[C@H](O)[C@H](C)O1 [DOXORUBICIN]",
    "pIC50": 6.00
  },
  {
    "COMPOUND": "NS(=O)(=O)c1ccc(-n2c(-c3ccccc3Br)nc(-c3ccccc3)c2-c2ccccc2)cc1",
    "pIC50": 5.51
  }
]

Here is the next item to consider.
Per the records, this compound ( "COc1ccccc1-c1nc(-c2ccccc2)c(-c2ccccc2)n1-c1ccc(S(N)(=O)=O)cc1" ) has pIC50 equal to 5.62

====

ASSAY_METHOD_TEXT: Anticancer activity against HEK293 cells assessed as reduction in cell viability incubated for 48 hrs by MTT assay
Assay type: toxicity, cell-based
TEST_PARAMETERS: human
ENDPOINT_NAME: IC50 at 48 h (µM)
Give the quantity in µM, number only.

Below are worked cases with known answers.
[
  {
    "COMPOUND_STRUCTURE": "O=c1c(-c2nc(-c3ccc(Br)cc3)c(-c3ccc(Br)cc3)[nH]2)coc2ccccc12",
    "ENDPOINT_NAME": "IC50 at 48 h",
    "VALUE_UNIT": "µM",
    "READOUT_NUMBER": 82.3
  },
  {
    "COMPOUND_STRUCTURE": "Brc1ccc(-c2nc(-c3c[nH]c4ccccc34)[nH]c2-c2ccc(Br)cc2)cc1",
    "ENDPOINT_NAME": "IC50 at 48 h",
    "VALUE_UNIT": "µM",
    "READOUT_NUMBER": 98.5
  }
]

The recorded IC50 at 48 h for entry "O=[N+]([O-])c1ccccc1-c1nc(-c2ccc(Br)cc2)c(-c2ccc(Br)cc2)[nH]1" equals 94.3

====

ASSAY_METHOD_TEXT: Antiproliferative activity against human MRC5 cells assessed as reduction in cell viability incubated for 24 hrs by MTT assay
Type: toxicity, cell-based
ENDPOINT_NAME: IC50 at 24 h (µM)
Hi! Could you send only the number? It should be in µM, unit omitted.

[
  {
    "COMPOUND_STRUCTURE": "COc1ccc(C(=O)/C=C/c2nc3ccccc3n2C)cc1",
    "IC50 at 24 h / µM": 45.9
  }
]

The compound listed as "COc1ccc(C(=O)/C=C/c2nccn2C)cc1" has a reported IC50 at 24 h of 67.4

====

System: Caco-2
ASSAY_METHOD_TEXT: Cytotoxicity against human Caco-2 cells assessed as reduction in cell growth incubated for 24 hrs by MTT assay
Type: functional, cell-based
TEST_PARAMETERS: Caco-2, 24 h
ENDPOINT_NAME: IC50

[
  {
    "COMPOUND_STRUCTURE": "COc1cccc2c1C(=O)c1c(O)c3c(c(O)c1C2=O)C[C@@](O)(C(=O)CO)C[C@@H]3O[C@H]1C[C@H](N)[C@H](O)[C@H](C)O1",
    "IC50": "5.17 µM"
  }
]

Switching to the query record.
response.value for "O=C(O)c1ccc(C(=O)NCn2cc(CSc3nc(-c4ccccc4)c(-c4ccccc4)n3-c3ccccc3)nn2)cc1" (field: IC50) = 4.67 µM

====

System: HepG2
ASSAY_METHOD_TEXT: Antiproliferative activity against human HepG2 cells assessed as reduction in cell viability incubated for 48 hrs by CCK-8 assay
Type: functional, cell-based
TEST_PARAMETERS: HepG2, 48 h
ENDPOINT_NAME: IC50 (nM)
A number alone suffices; assume nM.

[
  {
    "COMPOUND_STRUCTURE": "O=C(OCCn1c([N+](=O)[O-])cnc1/C=C/c1ccc2ccccc2c1)c1nccc2ccccc12",
    "ENDPOINT_NAME": "IC50",
    "READOUT_NUMBER": 110
  }
]

Proceeding to the next compound to report its IC50.
IC50 recorded for this compound, "CN(C)c1ccc(/C=C/c2ncc([N+](=O)[O-])n2CCOC(=O)c2nccc3ccccc23)cc1" , is 170

====

Test system: A549
ASSAY_METHOD_TEXT: Antiproliferative activity against human A549 cells assessed as reduction in cell growth by MTT assay
Format: functional, cell-based
ENDPOINT_NAME: pIC50
The read-out pIC50 is expressed as -log10 of concentration in moles per litre.

Briefly, pIC50 measured for "NS(=O)(=O)c1ccc(-n2c(-c3ccccc3Br)nc(-c3ccccc3)c2-c2ccccc2)cc1" : 5.55

pIC50 for "COc1ccccc1-c1nc(-c2ccccc2)c(-c2ccccc2)n1-c1ccc(S(N)(=O)=O)cc1" is 5.62

====

Tested on: L02
ASSAY_METHOD_TEXT: Antiproliferative activity against human LO2 cells assessed as reduction in cell growth by MTT assay
Assay type: functional, cell-based
ENDPOINT_NAME: IC50 (µM)
I only need the number, in µM, no unit after it.

[
  {
    "COMPOUND_STRUCTURE": "Brc1ccc(-c2nc(-c3ccccc3)c(-c3ccccc3)[nH]2)cn1",
    "TEST_SYSTEM": "L02",
    "IC50, µM": 22
  }
]

Data point: "c1ccc(-c2nc(-c3c[nH]c4ccccc34)[nH]c2-c2ccccc2)cc1" ; IC50 = 34.7

====

ASSAY_METHOD_TEXT: Inhibition of TK (unknown origin)
Design: species or system Homo sapiens
ENDPOINT_NAME: pIC50
Please note pIC50 is a logarithmic value: minus log10 of concentration in mol/L. Answer with that number alone.

Entry "COc1cccc2c1C=C(c1ncc(-c3ccc(OCc4ccccc4)cc3)[nH]1)CO2" ; pIC50 = 5.33

====

System: MCF7
ASSAY_METHOD_TEXT: Antiproliferative activity against human MCF7 cells assessed as reduction in cell viability incubated for 72 hrs by MTT assay
Format: functional, cell-based
TEST_PARAMETERS: MCF7, 72 h
ENDPOINT_NAME: pIC50
Scale note: pIC50 = -log10(concentration in M).

[
  {
    "COMPOUND_STRUCTURE": "COc1ccc(/C=C\\c2cc(OC)c(OC)c(OC)c2)cc1O",
    "pIC50": 8.30
  }
]

As a next step, examine the compound that follows.
So, "CCOc1ccc(-c2nccn2-c2cc(OC)c(OC)c(OC)c2)cc1Cl" ? Its pIC50 was 9.15
